Values were extracted from patent US20260042764A1.

Biological target: Avi-KRAS G12V (1-169) GppNHp/RAF1 RBD-3xFLAG (52-151) (Homo sapiens, UniProt P01116, G12V)
Construct: Avi-KRAS G12V (1-169)
Sequence (P01116 1-169 isoform P01116-2 G12V): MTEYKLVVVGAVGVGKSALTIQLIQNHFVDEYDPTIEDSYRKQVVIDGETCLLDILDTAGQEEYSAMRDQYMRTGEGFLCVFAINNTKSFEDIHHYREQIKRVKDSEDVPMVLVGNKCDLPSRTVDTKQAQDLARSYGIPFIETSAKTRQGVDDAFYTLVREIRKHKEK
Assay: Raf1-KRAS G12V-GppNHP disruption HTRF assay (Biological Example 1)
Format: binding
Conditions: KRAS G12V-GppNHp/RAF1 RBD HTRF
pIC50: −log10 of the molar value.
quantity: pIC50

Consider the compound shown here: CCN(c1nc(OC[C@@]23CCCN2C[C@H](F)C3)nc2c(F)c(-c3ccc(F)c4sc(N)c(C#N)c34)c(C(F)(F)F)cc12)[C@H]1CCN(C(=O)C2CC2(F)F)C1 (some centres unmarked) What is its recorded pIC50?
> 7.00

Consider the compound shown here: Cc1c(C(=O)N(C)C)nn2c1CN(c1nc(OC[C@@]34CCCN3C[C@H](F)C4)nc3c(F)c(-c4ccc(F)c5sc(N)c(C#N)c45)c(C(F)(F)F)cc13)CC2 What is its recorded pIC50?
6.00 to 7.00

Consider the compound shown here: N#Cc1c(N)sc2c(F)ccc(-c3c(C(F)(F)F)cc4c(N5CCN6C(=O)CCC6C5)nc(OCC56CCCN5CC(F)C6)nc4c3F)c12 (centres unmarked) [Compound 412] What is its recorded pIC50?
6.00 to 7.00

Consider the compound shown here: CC(C)C(=O)N1CC[C@@H]2[C@H]1CN2c1nc(OC[C@@]23CCCN2C[C@H](F)C3)nc2c(F)c(-c3ccc(F)c4sc(N)c(C#N)c34)c(C(F)(F)F)cc12 What is its recorded pIC50?
5.00 to 6.00

Consider the compound shown here: CCN(c1nc(OC[C@@]23CCCN2C[C@H](F)C3)nc2c(F)c(-c3ccc(F)c4sc(N)c(C#N)c34)c(C(F)(F)F)cc12)[C@H]1CCN(C(=O)c2ccon2)C1 (atropisomer, axis not shown) What is its recorded pIC50?
> 7.00

Consider the compound shown here: N#Cc1c(N)sc2c(F)ccc(-c3c(C(F)(F)F)cc4c(N5CCc6cn[nH]c6C5)nc(OC[C@@]56CCCN5C[C@H](F)C6)nc4c3F)c12 What is its recorded pIC50?
< 5.00

Consider the compound shown here: C[C@@H]1[C@H](N(C)c2nc(OC[C@@]34CCCN3C[C@H](F)C4)nc3c(F)c(-c4ccc(F)c5sc(N)c(C#N)c45)c(Cl)cc23)CCN1C(=O)C1(F)CC1 What is its recorded pIC50?
5.00 to 6.00

Consider the compound shown here: C[C@@H]1[C@H](N(C)c2nc(OC[C@@]34CCCN3C[C@H](F)C4)nc3c(F)c(-c4ccc(F)c5sc(N)c(C#N)c45)c(Cl)cc23)CCN1C(=O)C(F)F What is its recorded pIC50?
5.00 to 6.00

Consider the compound shown here: N#Cc1c(N)sc2c(F)ccc(-c3c(C(F)(F)F)cc4c(N5C[C@H]6C[C@@H](O)[C@@H]5C6)nc(OC[C@@]56CCCN5C[C@H](F)C6)nc4c3F)c12 What is its recorded pIC50?
5.00 to 6.00

Consider the compound shown here: CCN(c1nc(OC[C@@]23CCCN2C[C@H](F)C3)nc2c(F)c(-c3ccc(F)c4sc(N)c(C#N)c34)c(C(F)(F)F)cc12)[C@@H]1CCN(C(=O)C2CC2)[C@@H]1C (atropisomer, axis not shown) [Compound 524] What is its recorded pIC50?
> 7.00

Consider the compound shown here: CCC(=O)N1C[C@H](N(CC)c2nc(OC[C@@]34CCCN3C[C@H](F)C4)nc3c(F)c(-c4ccc(F)c5sc(N)c(C#N)c45)c(C(F)(F)F)cc23)C[C@@H]1C (atropisomer, axis not shown) What is its recorded pIC50?
6.00 to 7.00

Consider the compound shown here: CN(Cc1cccnc1N)c1nc(OC[C@@]23CCCN2C[C@H](F)C3)nc2c(F)c(-c3ccc(F)c4sc(N)c(C#N)c34)c(C(F)(F)F)cc12 What is its recorded pIC50?
> 7.00

Consider the compound shown here: CNC(=O)N1CC[C@@H](N(C)c2nc(OC[C@@]34CCCN3C[C@H](F)C4)nc3c(F)c(-c4ccc(F)c5sc(N)c(C#N)c45)c(C(F)(F)F)cc23)[C@H]1C What is its recorded pIC50?
6.00 to 7.00

Consider the compound shown here: CC(=O)N1C[C@@H](N(C)c2nc(OC[C@@]34CCCN3C[C@H](F)C4)nc3c(F)c(-c4ccc(F)c5sc(N)c(C#N)c45)c(C(F)(F)F)cc23)C[C@@H]1C What is its recorded pIC50?
6.00 to 7.00

Consider the compound shown here: CCN(c1nc(OC[C@@]23CCCN2C[C@H](F)C3)nc2c(F)c(-c3ccc(F)c4sc(N)c(C#N)c34)c(C(F)(F)F)cc12)[C@@H]1CCN(C(=O)C(C)C)C1 What is its recorded pIC50?
6.00 to 7.00

Consider the compound shown here: N#Cc1c(N)sc2c(F)ccc(-c3c(C(F)(F)F)cc4c(N5C6CC5CS(=O)(=O)C6)nc(OC[C@@]56CCCN5C[C@H](F)C6)nc4c3F)c12 What is its recorded pIC50?
5.00 to 6.00

Consider the compound shown here: Cn1ncc2c1CN(c1nc(OC[C@@]34CCCN3C[C@H](F)C4)nc3c(F)c(-c4ccc(F)c5sc(N)c(C#N)c45)c(C(F)(F)F)cc13)CC2 What is its recorded pIC50?
< 5.00

Consider the compound shown here: CN1CC[C@H](N(C)c2nc(OC[C@@]34CCCN3C[C@H](F)C4)nc3c(F)c(-c4ccc(F)c5sc(N)c(C#N)c45)c(C(F)(F)F)cc23)CC1=O What is its recorded pIC50?
5.00 to 6.00

Consider the compound shown here: CN1C[C@@H](N(C)c2nc(OC[C@@]34CCCN3C[C@H](F)C4)nc3c(F)c(-c4ccc(F)c5sc(N)c(C#N)c45)c(C(F)(F)F)cc23)CCC1=O What is its recorded pIC50?
5.00 to 6.00

Consider the compound shown here: C[C@]1(CO)CCN1c1nc(OC[C@@]23CCCN2C[C@H](F)C3)nc2c(F)c(-c3ccc(F)c4sc(N)c(C#N)c34)c(C(F)(F)F)cc12 What is its recorded pIC50?
5.00 to 6.00
